The measurements presented in this section are drawn from patent US12414952B2.

Target: human A2a adenosine receptor (Homo sapiens (Human))
Sequence (P29274 whole entry): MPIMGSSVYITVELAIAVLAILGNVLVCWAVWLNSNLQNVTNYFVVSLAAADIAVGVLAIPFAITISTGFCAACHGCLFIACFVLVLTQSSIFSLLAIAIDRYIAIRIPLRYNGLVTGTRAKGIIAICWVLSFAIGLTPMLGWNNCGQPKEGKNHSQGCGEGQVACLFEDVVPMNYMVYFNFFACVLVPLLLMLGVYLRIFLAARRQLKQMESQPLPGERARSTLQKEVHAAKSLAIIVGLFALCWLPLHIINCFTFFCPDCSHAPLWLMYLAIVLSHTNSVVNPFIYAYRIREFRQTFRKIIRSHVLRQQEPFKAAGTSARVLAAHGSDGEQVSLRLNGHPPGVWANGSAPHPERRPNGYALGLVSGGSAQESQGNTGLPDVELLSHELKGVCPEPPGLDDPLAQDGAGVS
Experiment: A2a binding affinity using radioligand binding, Method (A)
Settings: Method (A): [3H]SCH58261 filtration binding
attribute_measured: pIC50
Here pIC50 is given on a logarithmic scale as minus log10 of the concentration in mol/L.

Enquiry: Item CC(C)c1ncc2n1CCN(CCc1nc3cc(-c4ncco4)nc(N)n3n1)C2 : provide pIC50
Return: 6.90

Enquiry: Item Cc1c(-c2ncco2)nc(N)n2nc(Cc3cccc(C(C)(C)O)c3)nc12 : provide pIC50
Return: 8.72

Enquiry: Item Cc1c(-c2ncco2)nc(N)n2nc(CNCc3ccc(C(F)(F)F)cn3)nc12 : provide pIC50
Return: 6.81

Enquiry: Item Cc1c(-c2ccccc2)nc(N)c2nc(Cc3ccccc3)nn12 : provide pIC50
Return: 8.66

Enquiry: Item Nc1nc(-c2ccccc2)cc2nc(CCO)nn12 : provide pIC50
Return: 6.31

Enquiry: Item Cc1c(-c2ncco2)nc(N)n2nc(CCN3CCc4c(nnn4CC(C)(C)O)C3)nc12 : provide pIC50
Return: 7.74

Enquiry: Item Cc1cc2n(n1)CCN(CCc1nc3cc(-c4ncco4)nc(N)n3n1)C2 : provide pIC50
Return: 6.50

Enquiry: Item CC(C)c1ncc2n1CCN(CCc1nc3cc(-c4cc(F)ccc4F)nc(N)n3n1)C2 : provide pIC50
Return: 6.61

Enquiry: Item CC(C)c1ncc2n1CCN(CCc1nc3cc(-c4cc(F)ccc4Cl)nc(N)n3n1)C2 : provide pIC50
Return: 6.36
